tgt: T1, AAV9 (adeno-associated virus 9)
T1 construct: also called adeno-associated virus serotype 9
test_description: SPR, AAV amine-coupled to CM5 chip;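 note: nanobodies flowed as analyte at seven concentrations spanning 1–100 nM over immobilized AAV (500–800 RU), kinetic constants derived by fitting the binding curves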
observed_property: koff (s⁻¹)
Enter your answer as a number in s⁻¹; do not include the unit.

Problem: koff lookup needed for A4-078 (VHH) VHH: VQLQESGGGLVQPGGSLRLSCLASGTMFSLNTMGWYRQAPGKQRELVATVTRGGSTNYADFVKGRFTISRDNAKNTVYLQMNSLRPEDTAVYYCHVDEVRDSSWTTSNLWGQGTQVTVSS , thanks.
Solution: 0.00618

Problem: Item A4-072 (VHH) VHH: VQLQESGGGLAQPGGSLRLSCAASGSSFVINTMGWYRQAPGKQREFVATVTRGGSTNYGEFVKGRFTISRDNAKNTVYLQMNSLRPEDTAVYYCHVDELRQSSWTTSNLWGQGTQVTVSS has what recorded koff?
Solution: 0.00018

More entries:
Problem: # lookup: koff of A4-067 (VHH) VHH: VQLQESGGGLVQTGGSLRLSCAASGRAFSLNTMGWYRQAPGKWRELVATVTRGGSTNYAGSVKGRFTISRDNTKNTVYLQMNNLRPEDTAVYYCHVDEVRESSWTTSNLWGQGTQVTVSS
Solution: 0.00035

Problem: Reported koff, binder A4-063 (VHH) VHH: VQLQESGGGLVQPGGSLRLSCAASGRRFTINTMGWYRRAPGKQRELVATITRGGSTNYAGSVKGRFTISRDNPKNTVYLQMNSLRPEDTAVYYCHIDEVRQSSWTTSNLWGQGTQVTVSS : ____
Solution: 0.00401
